Source: ChEMBL document CHEMBL3352338

TESTED SYSTEM: Mitogen-activated protein kinase 14 (Homo sapiens) (UniProt Q16539)
Sequence (Q16539 whole entry): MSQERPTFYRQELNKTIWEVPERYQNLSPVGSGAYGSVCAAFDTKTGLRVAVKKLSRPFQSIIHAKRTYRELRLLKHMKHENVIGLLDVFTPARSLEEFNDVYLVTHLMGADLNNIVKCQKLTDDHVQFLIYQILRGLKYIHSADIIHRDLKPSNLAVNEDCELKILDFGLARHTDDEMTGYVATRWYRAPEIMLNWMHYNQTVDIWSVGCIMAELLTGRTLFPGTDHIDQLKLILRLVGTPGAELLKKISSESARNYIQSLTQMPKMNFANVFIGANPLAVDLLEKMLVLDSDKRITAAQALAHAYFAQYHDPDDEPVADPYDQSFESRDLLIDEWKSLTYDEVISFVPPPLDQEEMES
ASSAY TEXT: Inhibition of p38alpha (unknown origin) at 1 uM by KINOMEscanning assay relative to control; values are per cent of control
READOUT NAME: residual activity (%)
Give bare numbers, in %.

Some solved entries appear below for comparison.
STRUCTURE SMILES | TESTED SYSTEM | READOUT NAME | MEASURED VALUE
COc1ccc(-c2c[nH]c3ncc(-c4cc(OC)c(OC)c(OC)c4)cc23)cc1OC | Mitogen-activated protein kinase 14 (Homo sapiens) (UniProt Q16539) | residual activity | 100
COc1ccc(-c2cnc3[nH]cc(-c4ccc(OC)c(OC)c4)c3c2)cc1OC | Mitogen-activated protein kinase 14 (Homo sapiens) (UniProt Q16539) | residual activity | 96
COc1cc(-c2c[nH]c3ncc(-c4cccc(N)c4)cc23)cc(OC)c1OC | Mitogen-activated protein kinase 14 (Homo sapiens) (UniProt Q16539) | residual activity | 100
COc1ccc(-c2cnc3[nH]cc(-c4ccc(OC)c(OC)c4)c3c2)cc1N | Mitogen-activated protein kinase 14 (Homo sapiens) (UniProt Q16539) | residual activity | 93

The record that follows has no residual activity shown yet.
response.value for COc1ccc(-c2c[nH]c3ncc(-c4ccc(C(=O)N5CCOCC5)c(N)c4)cc23)cc1OC (field: residual activity) = 94

====

I'd appreciate it if you could supply residual activity values for the items below.
TESTED SYSTEM: Glycogen synthase kinase-3 beta (Homo sapiens) (UniProt P49841)
Sequence (P49841 whole entry, looked up): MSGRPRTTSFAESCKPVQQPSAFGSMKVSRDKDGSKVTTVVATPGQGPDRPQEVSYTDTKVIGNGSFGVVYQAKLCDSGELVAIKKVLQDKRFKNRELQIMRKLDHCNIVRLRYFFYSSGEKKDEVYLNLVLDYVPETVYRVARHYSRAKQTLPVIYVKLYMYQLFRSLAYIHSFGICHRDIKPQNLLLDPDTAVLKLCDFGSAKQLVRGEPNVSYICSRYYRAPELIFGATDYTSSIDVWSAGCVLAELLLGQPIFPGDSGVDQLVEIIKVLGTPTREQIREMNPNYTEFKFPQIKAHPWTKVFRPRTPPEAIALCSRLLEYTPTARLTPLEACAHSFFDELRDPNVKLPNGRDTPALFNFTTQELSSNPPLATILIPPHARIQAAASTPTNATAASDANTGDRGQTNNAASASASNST
ASSAY TEXT: Inhibition of GSK3beta (unknown origin) at 1 uM by KINOMEscanning assay relative to control; values are per cent of control
One number for each entry, in %.

Some solved entries appear below for comparison.
STRUCTURE SMILES | READOUT NAME | MEASURED VALUE
COc1cc(-c2c[nH]c3ncc(-c4cccc(N)c4)cc23)cc(OC)c1OC | residual activity | 64
COc1ccc(-c2c[nH]c3ncc(-c4ccc(C(=O)N5CCOCC5)c(N)c4)cc23)cc1OC | residual activity | 63
COc1ccc(-c2cnc3[nH]cc(-c4ccc(OC)c(OC)c4)c3c2)cc1N | residual activity | 87
COc1ccc(-c2cnc3[nH]cc(-c4ccc(OC)c(OC)c4)c3c2)cc1OC | residual activity | 94

Bench note, Glycogen synthase kinase-3 beta (Homo sapiens) (UniProt P49841): entry COc1ccc(-c2c[nH]c3ncc(-c4cc(OC)c(OC)c(OC)c4)cc23)cc1OC , its residual activity = 64

====

I'd appreciate it if you could supply residual activity values for the items below.
TESTED SYSTEM: UniProtKB Q9BWU1
Sequence (Q9BWU1 whole entry): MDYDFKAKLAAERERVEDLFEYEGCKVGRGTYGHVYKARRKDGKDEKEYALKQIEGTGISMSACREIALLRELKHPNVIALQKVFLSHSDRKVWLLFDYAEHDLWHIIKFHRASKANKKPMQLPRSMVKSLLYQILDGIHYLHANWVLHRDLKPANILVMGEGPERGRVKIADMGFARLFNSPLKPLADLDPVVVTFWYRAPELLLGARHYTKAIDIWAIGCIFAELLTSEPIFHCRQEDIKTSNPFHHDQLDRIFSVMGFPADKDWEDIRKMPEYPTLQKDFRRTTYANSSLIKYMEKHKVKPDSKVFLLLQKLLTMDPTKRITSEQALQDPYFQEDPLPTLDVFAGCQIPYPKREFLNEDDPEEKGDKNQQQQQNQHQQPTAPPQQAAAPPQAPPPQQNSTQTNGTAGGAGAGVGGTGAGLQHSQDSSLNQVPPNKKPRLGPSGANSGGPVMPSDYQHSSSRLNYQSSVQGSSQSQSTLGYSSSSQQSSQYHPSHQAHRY
ASSAY TEXT: Inhibition of CDK11 (unknown origin) at 1 uM by KINOMEscanning assay relative to control; values are per cent of control
Give bare numbers, in %.

STRUCTURE SMILES | residual activity [%]
COc1ccc(-c2cnc3[nH]cc(-c4ccc(OC)c(OC)c4)c3c2)cc1OC | 3.8
COc1ccc(-c2c[nH]c3ncc(-c4ccc(C(=O)N5CCOCC5)c(N)c4)cc23)cc1OC | 100
COc1ccc(-c2cnc3[nH]cc(-c4ccc(OC)c(OC)c4)c3c2)cc1N | 79
COc1ccc(-c2c[nH]c3ncc(-c4cc(OC)c(OC)c(OC)c4)cc23)cc1OC | 90

The record that follows has no residual activity shown yet.
response.value for COc1cc(-c2c[nH]c3ncc(-c4cccc(N)c4)cc23)cc(OC)c1OC (field: residual activity) = 96

====

I'd appreciate it if you could supply residual activity values for the items below.
TESTED SYSTEM: Calcium/calmodulin-dependent protein kinase type 1 (Homo sapiens)
ASSAY TEXT: Inhibition of CAMK1 (unknown origin) at 1 uM by KINOMEscanning assay relative to control; values are per cent of control
Give bare numbers, in %.

Some solved entries appear below for comparison.
STRUCTURE SMILES | residual activity / %
COc1ccc(-c2c[nH]c3ncc(-c4cc(OC)c(OC)c(OC)c4)cc23)cc1OC | 61
COc1ccc(-c2cnc3[nH]cc(-c4ccc(OC)c(OC)c4)c3c2)cc1OC | 63

Go through the list and state residual activity for each entry.
1. COc1ccc(-c2cnc3[nH]cc(-c4ccc(OC)c(OC)c4)c3c2)cc1N
2. COc1cc(-c2c[nH]c3ncc(-c4cccc(N)c4)cc23)cc(OC)c1OC

-- reply
1: 71; 2: 53

Bench note, Calcium/calmodulin-dependent protein kinase type 1 (Homo sapiens): entry COc1ccc(-c2c[nH]c3ncc(-c4ccc(C(=O)N5CCOCC5)c(N)c4)cc23)cc1OC , its residual activity = 62

====

I'd appreciate it if you could supply residual activity values for the items below.
TESTED SYSTEM: Aurora kinase B (Homo sapiens)
ASSAY TEXT: Inhibition of AURKB (unknown origin) at 1 uM by KINOMEscanning assay relative to control; values are per cent of control
Give bare numbers, in %.

Go through the list and state residual activity for each entry.
1. COc1ccc(-c2cnc3[nH]cc(-c4ccc(OC)c(OC)c4)c3c2)cc1N
2. COc1ccc(-c2c[nH]c3ncc(-c4cc(OC)c(OC)c(OC)c4)cc23)cc1OC
3. COc1cc(-c2c[nH]c3ncc(-c4cccc(N)c4)cc23)cc(OC)c1OC
4. COc1ccc(-c2c[nH]c3ncc(-c4ccc(C(=O)N5CCOCC5)c(N)c4)cc23)cc1OC
5. COc1ccc(-c2cnc3[nH]cc(-c4ccc(OC)c(OC)c4)c3c2)cc1OC

-- reply
1: 85; 2: 92; 3: 31; 4: 44; 5: 82

====

I'd appreciate it if you could supply residual activity values for the items below.
TESTED SYSTEM: Cyclin-dependent kinase 4 (Homo sapiens) (UniProt P11802)
Sequence (P11802 whole entry): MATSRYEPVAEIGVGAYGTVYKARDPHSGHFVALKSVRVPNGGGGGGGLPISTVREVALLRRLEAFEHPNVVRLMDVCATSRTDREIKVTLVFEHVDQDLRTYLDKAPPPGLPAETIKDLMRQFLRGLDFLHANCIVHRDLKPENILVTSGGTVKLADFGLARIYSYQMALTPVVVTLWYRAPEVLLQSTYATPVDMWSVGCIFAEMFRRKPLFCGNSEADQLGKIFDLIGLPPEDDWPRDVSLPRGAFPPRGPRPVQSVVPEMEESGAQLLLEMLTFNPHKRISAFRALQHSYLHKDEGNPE
ASSAY TEXT: Inhibition of CDK4 (unknown origin) at 1 uM by KINOMEscanning assay relative to control; values are per cent of control
Give bare numbers, in %.

Some solved entries appear below for comparison.
STRUCTURE SMILES | residual activity / %
COc1ccc(-c2c[nH]c3ncc(-c4ccc(C(=O)N5CCOCC5)c(N)c4)cc23)cc1OC | 82
COc1ccc(-c2c[nH]c3ncc(-c4cc(OC)c(OC)c(OC)c4)cc23)cc1OC | 95
COc1ccc(-c2cnc3[nH]cc(-c4ccc(OC)c(OC)c4)c3c2)cc1N | 81
COc1cc(-c2c[nH]c3ncc(-c4cccc(N)c4)cc23)cc(OC)c1OC | 85

response.value for COc1ccc(-c2cnc3[nH]cc(-c4ccc(OC)c(OC)c4)c3c2)cc1OC (field: residual activity) = 85

====

TESTED SYSTEM: UniProtKB Q13464
Sequence (Q13464 2-1354 limits assumed): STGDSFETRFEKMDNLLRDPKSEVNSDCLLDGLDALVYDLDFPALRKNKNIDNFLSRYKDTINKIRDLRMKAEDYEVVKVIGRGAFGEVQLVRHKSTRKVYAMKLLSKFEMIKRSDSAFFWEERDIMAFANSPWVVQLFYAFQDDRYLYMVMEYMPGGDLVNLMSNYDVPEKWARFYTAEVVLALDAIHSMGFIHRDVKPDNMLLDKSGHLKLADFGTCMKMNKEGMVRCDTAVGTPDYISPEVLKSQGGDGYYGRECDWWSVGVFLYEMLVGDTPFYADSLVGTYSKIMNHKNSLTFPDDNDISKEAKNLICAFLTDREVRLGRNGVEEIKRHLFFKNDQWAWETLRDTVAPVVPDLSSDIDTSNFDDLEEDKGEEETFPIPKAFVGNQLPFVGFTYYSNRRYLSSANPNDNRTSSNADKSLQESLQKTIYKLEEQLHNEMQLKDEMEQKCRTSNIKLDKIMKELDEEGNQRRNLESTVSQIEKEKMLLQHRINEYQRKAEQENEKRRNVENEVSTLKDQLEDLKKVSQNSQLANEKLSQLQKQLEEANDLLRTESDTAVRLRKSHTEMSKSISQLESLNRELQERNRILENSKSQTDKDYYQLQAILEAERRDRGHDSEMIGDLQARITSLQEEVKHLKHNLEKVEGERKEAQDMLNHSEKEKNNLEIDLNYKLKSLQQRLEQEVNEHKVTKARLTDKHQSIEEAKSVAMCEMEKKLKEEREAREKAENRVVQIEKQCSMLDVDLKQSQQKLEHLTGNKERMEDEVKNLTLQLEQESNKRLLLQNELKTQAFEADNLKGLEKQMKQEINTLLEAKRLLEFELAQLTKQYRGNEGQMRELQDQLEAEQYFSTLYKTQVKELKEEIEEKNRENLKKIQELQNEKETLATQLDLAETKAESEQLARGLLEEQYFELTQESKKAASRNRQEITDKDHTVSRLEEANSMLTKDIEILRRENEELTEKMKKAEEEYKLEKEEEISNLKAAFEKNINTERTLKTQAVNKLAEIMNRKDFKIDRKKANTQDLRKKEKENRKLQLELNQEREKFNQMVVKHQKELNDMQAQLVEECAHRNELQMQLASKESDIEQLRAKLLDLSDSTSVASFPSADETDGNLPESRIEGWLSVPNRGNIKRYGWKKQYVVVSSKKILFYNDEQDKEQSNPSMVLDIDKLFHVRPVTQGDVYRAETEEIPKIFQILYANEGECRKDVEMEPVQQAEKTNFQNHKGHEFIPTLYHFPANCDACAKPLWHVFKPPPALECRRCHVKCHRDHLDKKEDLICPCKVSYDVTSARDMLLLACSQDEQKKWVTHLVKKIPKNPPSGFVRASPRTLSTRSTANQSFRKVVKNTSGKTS
ASSAY TEXT: Inhibition of ROCK1 (unknown origin) at 1 uM by KINOMEscanning assay relative to control; values are per cent of control
I'd appreciate it if you could supply residual activity values for the items below.
Give bare numbers, in %.

STRUCTURE SMILES | residual activity [%]
COc1cc(-c2c[nH]c3ncc(-c4cccc(N)c4)cc23)cc(OC)c1OC | 94
COc1ccc(-c2c[nH]c3ncc(-c4ccc(C(=O)N5CCOCC5)c(N)c4)cc23)cc1OC | 16

Go through the list and state residual activity for each entry.
1. COc1ccc(-c2cnc3[nH]cc(-c4ccc(OC)c(OC)c4)c3c2)cc1N
2. COc1ccc(-c2cnc3[nH]cc(-c4ccc(OC)c(OC)c4)c3c2)cc1OC
3. COc1ccc(-c2c[nH]c3ncc(-c4cc(OC)c(OC)c(OC)c4)cc23)cc1OC

-- reply
[16, 33, 66]

====

I'd appreciate it if you could supply residual activity values for the items below.
TESTED SYSTEM: Serine/threonine-protein kinase pim-1 (Homo sapiens) (UniProt P11309)
Sequence (P11309 whole entry, looked up): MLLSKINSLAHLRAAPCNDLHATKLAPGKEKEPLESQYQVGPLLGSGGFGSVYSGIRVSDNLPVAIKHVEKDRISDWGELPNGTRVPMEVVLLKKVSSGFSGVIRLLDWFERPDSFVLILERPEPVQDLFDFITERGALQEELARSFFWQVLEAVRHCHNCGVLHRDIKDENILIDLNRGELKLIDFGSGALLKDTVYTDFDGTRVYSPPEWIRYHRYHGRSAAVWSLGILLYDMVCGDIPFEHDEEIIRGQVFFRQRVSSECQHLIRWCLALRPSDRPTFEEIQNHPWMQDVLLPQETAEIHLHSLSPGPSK
ASSAY TEXT: Inhibition of PIM1 (unknown origin) at 1 uM by KINOMEscanning assay relative to control; values are per cent of control
Numbers only, in %.

Some solved entries appear below for comparison.
STRUCTURE SMILES | READOUT NAME | SCALE UNIT | MEASURED VALUE
COc1cc(-c2c[nH]c3ncc(-c4cccc(N)c4)cc23)cc(OC)c1OC | residual activity | % | 88
COc1ccc(-c2c[nH]c3ncc(-c4cc(OC)c(OC)c(OC)c4)cc23)cc1OC | residual activity | % | 71
COc1ccc(-c2c[nH]c3ncc(-c4ccc(C(=O)N5CCOCC5)c(N)c4)cc23)cc1OC | residual activity | % | 27
COc1ccc(-c2cnc3[nH]cc(-c4ccc(OC)c(OC)c4)c3c2)cc1N | residual activity | % | 71

response.value for COc1ccc(-c2cnc3[nH]cc(-c4ccc(OC)c(OC)c4)c3c2)cc1OC (field: residual activity) = 68

====

TESTED SYSTEM: Mast/stem cell growth factor receptor Kit (Homo sapiens, UniProt P10721)
Sequence (P10721 whole entry): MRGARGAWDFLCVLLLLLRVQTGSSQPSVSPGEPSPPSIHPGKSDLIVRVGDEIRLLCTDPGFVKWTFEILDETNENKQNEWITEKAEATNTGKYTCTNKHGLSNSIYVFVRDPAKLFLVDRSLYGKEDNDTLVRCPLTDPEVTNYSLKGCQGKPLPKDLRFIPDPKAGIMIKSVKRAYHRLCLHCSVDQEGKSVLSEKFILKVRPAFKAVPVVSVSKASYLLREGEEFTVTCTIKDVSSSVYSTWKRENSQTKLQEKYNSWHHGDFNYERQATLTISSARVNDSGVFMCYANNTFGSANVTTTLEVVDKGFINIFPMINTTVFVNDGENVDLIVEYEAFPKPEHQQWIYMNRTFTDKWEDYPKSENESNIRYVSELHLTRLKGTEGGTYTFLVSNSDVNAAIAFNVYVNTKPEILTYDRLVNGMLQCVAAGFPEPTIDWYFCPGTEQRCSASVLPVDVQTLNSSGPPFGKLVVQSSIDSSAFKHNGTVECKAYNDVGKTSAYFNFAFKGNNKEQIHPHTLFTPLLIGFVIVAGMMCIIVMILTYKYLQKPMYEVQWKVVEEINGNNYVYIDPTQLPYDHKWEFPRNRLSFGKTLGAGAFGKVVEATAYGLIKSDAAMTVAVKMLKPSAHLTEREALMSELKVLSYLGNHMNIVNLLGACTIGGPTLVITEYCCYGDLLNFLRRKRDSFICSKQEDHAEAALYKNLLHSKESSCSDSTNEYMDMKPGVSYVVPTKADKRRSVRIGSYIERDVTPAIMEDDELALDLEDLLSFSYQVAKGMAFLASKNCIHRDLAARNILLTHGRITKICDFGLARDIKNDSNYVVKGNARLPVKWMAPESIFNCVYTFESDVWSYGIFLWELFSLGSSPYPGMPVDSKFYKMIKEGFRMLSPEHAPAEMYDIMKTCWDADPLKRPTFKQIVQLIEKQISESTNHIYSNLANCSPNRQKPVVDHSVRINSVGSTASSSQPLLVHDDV
# note: exactly 2000 nM is not below, so it is NO; use YES for IC50 strictly under it

-- ask For COc1ccc(-c2c[nH]c3ncc(-c4cc(OC)c(OC)c(OC)c4)cc23)cc1OC , is the recorded IC50 below the cut-off of 2000 nM?
-- reply NO

-- ask For COc1ccc(-c2c[nH]c3ncc(-c4cccc(NC(C)=O)c4)cc23)cc1OC , is the recorded IC50 below the cut-off of 2000 nM?
-- reply YES
